- Test system: TCC14
- condition_details: read-out: EC50 (antigen avidity); dose titration, BLS DR2b, proliferation after 72 h
Ends that are not written are not given here.
readout: EC50 (nM)
# output: bare number, implied unit nM

What measured EC50 is associated with LVRYWISAFP [SEQ ID NO: 33, LVRYWISAFP] on TCC14? 12
